Experiment: Pharmacokinetic study in rats (IV, PO)
Format: in vivo, Sprague-Dawley rats
Details: male, Sprague-Dawley; Table B; Rat Plasma; PO; 10 mg/kg; read-out: AUCINF—obs
Reported Endpoint: AUC(0-inf) (ng·h/mL)

[[record]]
compound_smiles = "O=C(N[C@H]1CC[C@@H](Oc2nc(N3CCOCC3)cc3ncccc23)CC1)c1ncccn1"
value_units = "ng·h/mL"
meas_value = 1800


---

Target: pDNA-PK ser2056 induction in HCT116 spheroids (Homo sapiens)
Construct: endogenous in cells; host or cells: HCT116 multicellular tumour spheroids
Test: Multicellular tumour spheroid + radiation, pDNA-PK inhibition, HCT116
Assay type: cell-based
Settings: Example 9 Study 2; 20 Gy; 20% O2; read-out: Spheroid Cell line: HCT116 Immunohistochemical endpoint pDNA-PK inhibition EC50
Reported Endpoint: EC50

[[record]]
molecule = "NC(=O)c1cnc(N[C@H]2CC[C@@H](Oc3nc(N4CCOCC4)cc4ncccc34)CC2)nc1 [Compound 52]"
meas_value = "10 to 500 nM"

[[record]]
molecule = "c1cncc(N[C@H]2CC[C@@H](Oc3nc(N4CCOCC4)cc4ncccc34)CC2)c1 [Compound 26]"
meas_value = "1000 to 10000 nM"

[[record]]
molecule = "c1cnnc(N[C@H]2CC[C@@H](Oc3nc(N4CCOCC4)cc4ncccc34)CC2)c1 [Compound 29]"
meas_value = "500 to 1000 nM"

[[record]]
molecule = "c1cnc2cc(N3CCOCC3)nc(O[C@H]3CC[C@@H](Nc4ncnc5ccsc45)CC3)c2c1 [Compound 83]"
meas_value = "10 to 500 nM"

[[record]]
molecule = "Ic1cnc(N[C@H]2CC[C@@H](Oc3nc(N4CCOCC4)cc4ncccc34)CC2)nc1 [Compound 42]"
meas_value = "1000 to 10000 nM"

[[record]]
molecule = "O=C(N[C@H]1CC[C@@H](Oc2nc(N3CCOCC3)cc3ncccc23)CC1)c1nccs1 [Compound 135]"
meas_value = "1000 to 10000 nM"

[[record]]
molecule = "Cn1ccc(N[C@H]2CC[C@@H](Oc3nc(N4CCOCC4)cc4ncccc34)CC2)n1 [Compound 30]"
meas_value = "10000 to 100000 nM"

[[record]]
molecule = "O=C(N[C@H]1CC[C@@H](Oc2nc(N3CCOCC3)cc3ncccc23)CC1)n1cccn1 [Compound 136]"
meas_value = "1000 to 10000 nM"


---

Experiment: Microsomal stability assay, mouse liver microsomes
Conditions: 60 min
Reported Endpoint: Microsomal Stability (mouse) % rem. 60 min

[[record]]
compound = "O=C(N[C@H]1CC[C@@H](Oc2nc(N3CCOCC3)cc3ncccc23)CC1)C1(O)CC1"
meas_value = "E (% remaining = 0-25%)"

[[record]]
compound = "Brc1cnc2cc(N3CCOCC3)nc(O[C@H]3CC[C@@H](Nc4ncccn4)CC3)c2c1 [Compound 18a]"
meas_value = "E (% remaining = 0-25%)"

[[record]]
compound = "O=C(N[C@H]1CC[C@@H](Oc2nc(N3CCOCC3)cc3ncccc23)CC1)c1ncco1"
meas_value = "G (% remaining = 50-75%)"

[[record]]
compound = "O=C(N[C@H]1CC[C@@H](Oc2nc(N3CCOCC3)cc3ncccc23)CC1)N1CCOCC1"
meas_value = "G (% remaining = 50-75%)"

[[record]]
compound = "CS(=O)(=O)Nc1cnc2cc(N3CCOCC3)nc(O[C@H]3CC[C@@H](Nc4ncccn4)CC3)c2c1"
meas_value = "G (% remaining = 50-75%)"

[[record]]
compound = "Fc1cn([C@H]2CC[C@@H](Oc3nc(N4CCOCC4)cc4ncccc34)CC2)cn1 [Compound 17a]"
meas_value = "E (% remaining = 0-25%)"

[[record]]
compound = "O=C(N[C@H]1CC[C@@H](Oc2nc(N3CCOCC3)cc3ncccc23)CC1)c1ccc[nH]1"
meas_value = "E (% remaining = 0-25%)"

[[record]]
compound = "O=C(N[C@H]1CC[C@@H](Oc2nc(N3CCOCC3)cc3ncccc23)CC1)c1cncnc1"
meas_value = "G (% remaining = 50-75%)"

[[record]]
compound = "Cc1ccnc(C(=O)N[C@H]2CC[C@@H](Oc3nc(N4CCOCC4)cc4ncccc34)CC2)n1"
meas_value = "F (% remaining = 25-50%)"

[[record]]
compound = "c1cnc2cc(N3CCOCC3)nc(O[C@H]3CC[C@@H](Nc4ccncc4)CC3)c2c1"
meas_value = "E (% remaining = 0-25%)"

[[record]]
compound = "O=C(N[C@H]1CC[C@@H](Oc2nc(N3CCOCC3)cc3ncccc23)CC1)c1nccs1"
meas_value = "E (% remaining = 0-25%)"

[[record]]
compound = "O=C(N[C@H]1CC[C@@H](Oc2nc(N3CCOCC3)cc3ncccc23)CC1)c1cccnc1"
meas_value = "F (% remaining = 25-50%)"

[[record]]
compound = "COc1ccc(C(=O)N[C@H]2CC[C@@H](Oc3nc(N4CCOCC4)cc4ncccc34)CC2)cc1"
meas_value = "E (% remaining = 0-25%)"

[[record]]
compound = "c1cnc(N[C@H]2CC[C@@H](Oc3nc(N4CCOCC4)cc4ncccc34)CC2)nc1 [Compound 20a]"
meas_value = "E (% remaining = 0-25%)"

[[record]]
compound = "Oc1cnc2cc(N3CCOCC3)nc(O[C@H]3CC[C@@H](Nc4ncccn4)CC3)c2c1 [Compound 19a]"
meas_value = "F (% remaining = 25-50%)"

